study-target: α4β7 integrin (Homo sapiens (Human), UniProt P13612+P26010)
Sequence (P13612 34-1032): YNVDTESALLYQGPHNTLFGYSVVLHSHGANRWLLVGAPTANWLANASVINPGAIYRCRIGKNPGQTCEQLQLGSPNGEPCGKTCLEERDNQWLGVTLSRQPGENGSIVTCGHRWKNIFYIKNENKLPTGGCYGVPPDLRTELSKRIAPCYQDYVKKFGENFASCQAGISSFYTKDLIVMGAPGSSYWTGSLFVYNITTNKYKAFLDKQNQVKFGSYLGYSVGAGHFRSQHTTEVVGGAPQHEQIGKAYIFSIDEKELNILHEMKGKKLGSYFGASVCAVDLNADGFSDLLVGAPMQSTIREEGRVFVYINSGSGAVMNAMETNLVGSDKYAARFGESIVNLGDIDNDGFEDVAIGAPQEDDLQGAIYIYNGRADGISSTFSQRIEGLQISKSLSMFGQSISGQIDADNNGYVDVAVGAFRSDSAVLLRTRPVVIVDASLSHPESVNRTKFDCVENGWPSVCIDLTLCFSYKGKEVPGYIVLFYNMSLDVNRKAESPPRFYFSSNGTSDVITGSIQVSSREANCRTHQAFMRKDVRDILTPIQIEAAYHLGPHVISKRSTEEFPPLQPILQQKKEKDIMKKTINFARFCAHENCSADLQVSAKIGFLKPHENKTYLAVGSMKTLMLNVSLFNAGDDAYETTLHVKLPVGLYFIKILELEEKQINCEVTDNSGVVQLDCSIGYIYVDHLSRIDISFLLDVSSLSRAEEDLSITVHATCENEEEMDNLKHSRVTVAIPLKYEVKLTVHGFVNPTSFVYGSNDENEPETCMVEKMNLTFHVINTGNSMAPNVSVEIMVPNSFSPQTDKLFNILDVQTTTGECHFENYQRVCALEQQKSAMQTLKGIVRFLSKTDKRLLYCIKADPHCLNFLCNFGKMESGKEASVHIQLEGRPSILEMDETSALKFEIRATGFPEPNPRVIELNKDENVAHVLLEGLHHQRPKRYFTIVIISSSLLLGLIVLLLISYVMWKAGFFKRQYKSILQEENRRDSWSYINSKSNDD
Sequence (P26010 20-798): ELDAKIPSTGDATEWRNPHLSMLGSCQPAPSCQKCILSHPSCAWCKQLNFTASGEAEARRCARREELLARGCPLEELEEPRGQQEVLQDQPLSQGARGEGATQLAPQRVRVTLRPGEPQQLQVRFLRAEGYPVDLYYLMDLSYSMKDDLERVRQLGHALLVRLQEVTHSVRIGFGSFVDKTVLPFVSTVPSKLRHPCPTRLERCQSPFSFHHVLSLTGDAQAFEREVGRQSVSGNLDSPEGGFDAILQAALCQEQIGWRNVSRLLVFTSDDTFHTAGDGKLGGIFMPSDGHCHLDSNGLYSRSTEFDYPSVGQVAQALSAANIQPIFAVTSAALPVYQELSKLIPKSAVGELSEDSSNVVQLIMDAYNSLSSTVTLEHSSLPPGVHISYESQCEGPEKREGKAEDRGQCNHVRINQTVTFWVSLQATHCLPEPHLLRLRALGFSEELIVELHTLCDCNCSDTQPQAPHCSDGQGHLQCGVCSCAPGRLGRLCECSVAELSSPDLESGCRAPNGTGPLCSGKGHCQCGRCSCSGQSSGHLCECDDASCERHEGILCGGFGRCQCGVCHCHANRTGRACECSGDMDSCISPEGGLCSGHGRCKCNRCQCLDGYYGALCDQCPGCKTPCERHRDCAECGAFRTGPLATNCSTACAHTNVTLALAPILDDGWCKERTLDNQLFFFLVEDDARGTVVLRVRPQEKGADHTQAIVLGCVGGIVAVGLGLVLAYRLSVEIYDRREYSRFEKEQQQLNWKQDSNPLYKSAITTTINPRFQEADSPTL
protocol-description: Integrin Adhesion Assay: Protocol 4 (MAdCAM-coated plate, RPMI-8866 cells with stable LOF mutation of the ITGB1 gene)
Format: cell-based
setup-conditions: Protocol 4; RPMI-8866 cells with LOF mutation of ITGB1, MAdCAM; read-out: Mean IC50 α4β7 KO
measurement-kind: IC50

> print(dat)
                                   compound  assay.value
1  COc1c(CN2CCCCC2)ccc(Cl)c1-c1cccc2c(C[C@H](NC(=O)c3c(C)cccc3F)C(=O)O)cccc12 [Compound 1013]      < 10 nM

Exercise: API: value(readout= IC50, system= α4β7 integrin (Homo sapiens (Human), UniProt P13612+P26010), query= COc1cccc(CCN2CCC(F)CC2)c1-c1cccc2c(C[C@H](NC(=O)c3c(C)cccc3F)C(=O)O)cccc12 [Compound 1035] )
Key: 10 to 100 nM

Exercise: Checklist item: IC50 tested on α4β7 integrin (Homo sapiens (Human), UniProt P13612+P26010), entry CCOCc1cc(OC)c(-c2cccc3c(C[C@H](NC(=O)c4c(C)cccc4F)C(=O)O)cccc23)cc1CN1CCCCC1 [Compound 1008] , value?
Key: < 10 nM

Exercise: # query: IC50 | item COc1ccc(CN2CCC(F)CC2)c(C(F)(F)F)c1-c1cccc2c(C[C@H](NC(=O)C3(C(F)(F)F)CCN(CC(F)(F)F)CC3)C(=O)O)cccc12 [Compound 821] | system: α4β7 integrin (Homo sapiens (Human), UniProt P13612+P26010)
Key: 10 to 100 nM

Exercise: Identify the measured IC50 of COc1ccc2ccnc(-c3cccc4c(C[C@H](NC(=O)C5(C(F)(F)F)CCN(CC(F)(F)F)CC5)C(=O)O)cccc34)c2c1 [Compound 777] for α4β7 integrin (Homo sapiens (Human), UniProt P13612+P26010).
Key: 10 to 100 nM

Exercise: Under α4β7 integrin (Homo sapiens (Human), UniProt P13612+P26010): IC50 value of CC1(C)CCCN(Cc2cnc(-c3cccc4c(C[C@H](NC(=O)C5(C(F)(F)F)CCN(CC(F)F)CC5)C(=O)O)cccc34)c3ccccc23)C1 [Compound 910] ?
Key: < 10 nM

Exercise: Notebook: pull reported IC50 for α4β7 integrin (Homo sapiens (Human), UniProt P13612+P26010), entry CN(C)Cc1cnc(-c2cccc3c(C[C@H](NC(=O)C4(C(F)(F)F)CCN(CC(F)(F)F)CC4)C(=O)O)cccc23)c2ccccc12 [Compound 921]
Key: < 10 nM

Exercise: Provide the documented IC50 with α4β7 integrin (Homo sapiens (Human), UniProt P13612+P26010) as the system for COc1cccc(CN2CCC(C)(C)CC2)c1-c1cccc2c(C[C@H](NC(=O)c3c(C)cccc3F)C(=O)O)cccc12 [Compound 1017]
Key: < 10 nM
